Data provenance: patent US20260116991A1

- Subject of test: T1, human GPC3-His protein (human, UniProt P51654 25-559)
- T1 construct: Bought protein; also called human GPC3 protein; not shown: His tag
- Test description: ELISA, coated human GPC3, antibody 100 nM;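 note: antibodies bound to antigen-coated 96-well plates (1 µg/mL), 2 h at 37 °C, detected with HRP-labelled secondary antibody and TMB substrate, absorbance read at 450 nm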

{"Binder": "F1.2.14 human-murine chimeric antibody (antibody, human IgG1, kappa, V domains shown) VH: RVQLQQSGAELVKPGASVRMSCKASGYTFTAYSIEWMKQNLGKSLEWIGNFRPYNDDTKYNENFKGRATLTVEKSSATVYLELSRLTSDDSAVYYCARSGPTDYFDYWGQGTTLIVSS VL: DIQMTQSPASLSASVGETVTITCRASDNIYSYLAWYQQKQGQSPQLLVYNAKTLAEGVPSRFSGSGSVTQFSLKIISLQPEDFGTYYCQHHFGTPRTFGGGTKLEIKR", "Readout unit": "OD450", "OD450 nm": 1.84}
{"Binder": "F1.83.6 human-murine chimeric antibody (antibody, human IgG1, kappa, V domains shown) VH: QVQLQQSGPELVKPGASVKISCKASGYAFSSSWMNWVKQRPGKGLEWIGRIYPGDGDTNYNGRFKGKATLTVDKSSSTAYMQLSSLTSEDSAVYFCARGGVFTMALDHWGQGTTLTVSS VL: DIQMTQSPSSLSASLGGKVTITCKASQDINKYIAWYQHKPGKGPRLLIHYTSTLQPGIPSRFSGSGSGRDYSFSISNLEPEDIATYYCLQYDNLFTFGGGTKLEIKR", "Readout unit": "OD450", "OD450 nm": 0.76}
